Where do the numbers come from? From the supplement of paper PMC4840960.

System: E18 rat cortical neuron-glia co-culture;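 further: MBP fiber length per Olig2+ nucleus over MBP area × intensity per Olig2+ nucleus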
test: fiber score / MBP score (myelination specific beyond OL differentiation) (ratio); higher = more myelination-specific MBP alignment
measurement-context: 5 µM; treatment time: 8 days (DIV5-DIV13)
# fiber score / MBP score annotations

compound	test-system	fiber score / MBP score
COc1ccc(CC(C)NCC(O)c2ccc(O)c(NC=O)c2)cc1 (configuration not stated)	E18 rat cortical neuron-glia co-culture	0.726
Cc1onc(-c2c(Cl)cccc2Cl)c1C(=O)N[C@@H]1C(=O)N2[C@@H]1SC(C)(C)[C@@H]2C(=O)O	E18 rat cortical neuron-glia co-culture	0.655
Cc1sc(N)c(C(=O)c2cccc(C(F)(F)F)c2)c1C	E18 rat cortical neuron-glia co-culture	0.698
Nc1nc(F)nc2c1ncn2[C@@H]1O[C@H](CO)[C@@H](O)[C@@H]1O	E18 rat cortical neuron-glia co-culture	0.885
C/C(=C\C(=O)OCCCCCCCCC(=O)O)C[C@@H]1OC[C@H](C[C@@H]2O[C@H]2[C@@H](C)[C@H](C)O)[C@@H](O)[C@H]1O	E18 rat cortical neuron-glia co-culture	0.41
CN1CCC(=C2c3ccccc3CC(=O)c3sccc32)CC1	E18 rat cortical neuron-glia co-culture	0.58
O=C1NC(C(=O)O)CS1 (configuration not stated)	E18 rat cortical neuron-glia co-culture	0.758
CN(C)C(=O)C(CCN1CCC(O)(c2ccc(Cl)cc2)CC1)(c1ccccc1)c1ccccc1 [Loperamide]	E18 rat cortical neuron-glia co-culture	0.368
CCc1c(C)[nH]c2c1C(=O)C(CN1CCOCC1)CC2 (configuration not stated)	E18 rat cortical neuron-glia co-culture	0.498
c1cnc(N2CCN(Cc3ccc4c(c3)OCO4)CC2)nc1	E18 rat cortical neuron-glia co-culture	0.712
CN(C)CCOC(c1ccccc1)c1ccccc1 [Diphenhydramine]	E18 rat cortical neuron-glia co-culture	0.525
Nc1c2c(nc3c1CCC3)CCCC2	E18 rat cortical neuron-glia co-culture	0.8
O=C(O)c1cccnc1	E18 rat cortical neuron-glia co-culture	0.998
CNCCCN1c2ccccc2CCc2ccccc21	E18 rat cortical neuron-glia co-culture	0.549
COc1c(N2CCNC(C)C2)c(F)cc2c(=O)c(C(=O)O)cn(C3CC3)c12 (configuration not stated)	E18 rat cortical neuron-glia co-culture	0.609
Nc1ccc2cn[nH]c2c1	E18 rat cortical neuron-glia co-culture	0.815
O=C(NCCN1CCOCC1)c1ccc(Cl)cc1 [Moclobemide]	E18 rat cortical neuron-glia co-culture	0.881
